As an illustration, consider measured ΔTm for molecules on Mitogen-activated protein kinase 14 (Homo sapiens).
Sequence (Q16539 whole entry): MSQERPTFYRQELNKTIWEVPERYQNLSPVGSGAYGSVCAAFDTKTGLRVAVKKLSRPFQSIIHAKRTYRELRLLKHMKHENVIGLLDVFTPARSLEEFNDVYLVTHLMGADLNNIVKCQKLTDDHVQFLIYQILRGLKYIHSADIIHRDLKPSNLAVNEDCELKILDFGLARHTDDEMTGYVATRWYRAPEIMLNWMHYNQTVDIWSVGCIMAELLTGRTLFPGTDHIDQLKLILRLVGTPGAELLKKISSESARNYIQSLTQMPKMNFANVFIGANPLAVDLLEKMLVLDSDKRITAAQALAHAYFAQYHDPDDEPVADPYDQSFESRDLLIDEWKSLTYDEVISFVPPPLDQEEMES
parameterMeasured: ΔTm (°C)

[A] CC(NC(=O)c1cnn(-c2ccccc2)c1N)c1ccc(C(=O)N[C@@H](CC2CCCCC2)C(N)=O)cc1 (stereo partly drawn)
[B] CC(C)CC[C@H](NC(=O)c1ccc(C(C)NC(=O)c2cnn(-c3ccccc3)c2N)cc1)C(N)=O (stereo partly drawn)
[C] NC(=O)[C@H](CCC1CCCCC1)NC(=O)c1cnc(CNC(=O)c2cnn(-c3ccccc3)c2)s1
Q: Ranking criterion: ΔTm, increasing numeric value. Items: as listed above. Write out the labels following the order that was asked for.
Result: B, A, C
(B: 2.5 °C, A: 4.1 °C, C: 9.8 °C)

[P] CC(C)(NC(=O)c1ccc(CNC(=O)c2cnn(-c3ccccc3)c2)cc1)C(N)=O
[Q] CC(NC(=O)c1cnn(-c2ccccc2)c1N)c1ccc(C(=O)NC(C)(C)C(N)=O)cc1 (stereo not drawn)
[R] CC(NC(=O)c1cc(-c2ccccc2)n[nH]1)c1ccc(C(=O)N[C@@H](CCC2CCCCC2)C(N)=O)cc1 (stereo partly drawn)
[S] NC(=O)C1(NC(=O)c2ccc(CNC(=O)c3cnn(-c4ccccc4)c3N)cc2)CC1
[T] NC(=O)[C@H](CCC1CCCCC1)NC(=O)c1ccc(NC(=O)c2cc(-c3ccccc3)n[nH]2)s1
Q: Please produce an ascending ranking of these molecules based on ΔTm. Use the labels to give the requested order.
Result: T, P, R, Q, S

[1] CC(C)(NC(=O)c1ccc(CNC(=O)c2cnn(-c3ccccc3)c2C(F)(F)F)cc1)C(N)=O
[2] CC(C)(NC(=O)c1ccc(NC(=O)c2cnn(-c3ccccc3)c2N)s1)C(N)=O
[3] CC(C)(NC(=O)c1cnc(CNC(=O)c2cnn(-c3ccccc3)c2N)s1)C(N)=O
[4] O=C(NC1CC1)c1ccc(CNC(=O)c2cnn(-c3ccccc3)c2C(F)(F)F)cc1
Q: Order the records so the highest ΔTm appears first and the lowest last. Respond with the label ranking, as requested.
Result: 2, 3, 4, 1

[1] NC(=O)[C@H](CC1CCCCC1)NC(=O)c1ccc(NC(=O)c2cnn(-c3ccccc3)c2N)s1
[2] Cc1ccc(C(=O)N[C@@H](CCC2CCCCC2)C(N)=O)cc1NC(=O)c1cnn(-c2ccccc2)c1C(F)(F)F
[3] NC(=O)c1ccc(CNC(=O)c2cnn(-c3ccccc3)c2N)cc1
Q: Order each entry by recorded ΔTm, climbing from the minimum. Response format: the labels, sorted as the prompt asks.
Result: 1, 3, 2
(1: 1.1 °C, 3: 2.3 °C, 2: 7.5 °C)
